test: fission yeast growth modulation, primary screen, strain 972, OD600, 24 h, no modulator (AID 1090);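 note: basal condition with compound alone and no growth modifier present; test concentration not given here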; conditions: S. pombe 972 growth, higher = more signal, called active from +8 up or from −8 down
Hi there, I'd appreciate the recorded z-score for every entry that follows.
Numbers only.

Parameter requested: z-score. Apply to each item below.
1. O=C(O)[C@H]1C[C@H]2C(=O)NCC(=O)N2[C@H]1c1ccc(O)cc1
2. CCOC(=O)C[C@H]1[C@H](OC(=O)c2ccc(-c3ccccc3)cc2)[C@@H](NC(=O)c2ccc3ccccc3c2)c2cc(OCCCO)ccc2N1C(=O)Cc1ccc(OC)cc1

RESULT:
[-0.81, 0.636]

Parameter requested: z-score. Apply to each item below.
1. CC(C)c1ccc(NN2C(C(O)c3ccc(N(C)C)cc3)C=CC3C(=O)N(c4ccccc4)C(=O)C32)cc1 (stereo not drawn)
2. CC=CC(O)C1C=CC2C(=O)N(c3ccccc3)C(=O)C2N1Nc1ccc(C(C)C)cc1 (stereo not drawn)
3. COCCOC(=O)N1C(=O)[C@@]2(c3cc(C#CCNC(N)=O)ccc31)[C@H](c1ccccc1OCCO)N1[C@H](c3ccccc3)[C@H](c3ccccc3)OC(=O)[C@H]1[C@@H]2C(N)=O
4. CC(C)NC(=O)[C@@H]1c2ccccc2C(=O)N(Cc2ccccc2Cl)[C@H]1c1ccc(CO)cc1
5. O=C1O[C@@H](c2ccccc2)[C@@H](c2ccccc2)N2[C@@H](c3ccc(O)cc3)[C@]3(C(=O)Nc4ccc(C#CC5(O)CCCCCC5)cc43)[C@@H](C(=O)N3CCCCCCC3)[C@H]12
6. Cc1cc(C)cc(N2C(=O)CS(=O)(=O)C2c2cccc([N+](=O)[O-])c2)c1 (stereo not drawn)
7. COC(=O)[C@@]1(Cc2ccc(OC)cc2)[C@H]2c3cc(C(=O)N4CCCC4)n(CCc4c[nH]c5cc(F)ccc45)c3C[C@H]2CN1C(=O)c1ccccc1
8. COc1ccc([Si](C)(C)[C@@H]2[C@@H](CC(=O)N3CCC[C@H]3CO)O[C@]3(C(=O)N(C)c4c(Br)cc(C)cc43)[C@H]2C)cc1

RESULT:
[1.26, 0.877, 1.59, 0.247, 0.321, -1.22, 1.2, -0.328]

Parameter requested: z-score. Apply to each item below.
1. CCOC(=O)C[C@H]1[C@H](OC(=O)Cc2ccc3c(c2)OCO3)[C@@H](NC(=O)C2CCCCC2)c2cc(OCCCO)ccc2N1C(=O)Cc1ccc(OC)cc1
2. CCOC(=O)C1=CC[C@@H](c2ccccc2)N(S(=O)(=O)c2ccc(C)cc2)[C@H]1C(=O)OCC
3. O=C1C2C=CC(C(O)c3ccc(B(O)O)cc3)N(Nc3ccccc3)C2C(=O)N1c1ccccc1 (stereo not drawn)
4. COc1ccc([Si](C)(C)[C@H]2[C@H](CC(=O)N(CCO)Cc3ccccc3)O[C@@]3(C(=O)N(Cc4cccc(N5CCC5=O)c4)c4ccccc43)[C@@H]2C)cc1
5. O=C(CS)NCCCCCCNC(=O)[C@@H]1C[C@@H]2C(=O)N3CCC[C@H]3C(=O)N2[C@@H]1c1ccc(O)cc1

RESULT:
1: -0.38; 2: 0.572; 3: -4.7; 4: -0.509; 5: 0.626

---

Hi there, I'd appreciate the recorded composite z-score for every entry that follows.
experiment: small-molecule microarray binders of probe aLefty2, primary screen, biochemical, biotinylated probe, 635/667 nm fluorescence (AID 1094); conditions: higher = more signal;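 note: score merges spot fluorescence near 667 nm with spot signal-to-noise ratio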
Give bare numbers.

Study these solved cases before continuing.
QUERY: Give a short answer stating reported composite z-score for CS(=O)(=O)CCOC(=O)C1=CC(CCCO)=CC(c2cccs2)N(Cc2cc3c(cc2Br)OCO3)C=C1C(=O)OCCS(C)(=O)=O (centres undefined) .
RESULT: -0.0379

QUERY: Give a short answer stating reported composite z-score for CC(C)N1C(=O)C[C@@](C(=O)NCc2ccccc2)(c2ccc([N+](=O)[O-])cc2)[C@H]1c1ccc(CO)cc1 .
RESULT: 0.16

QUERY: Give a short answer stating reported composite z-score for C=C[C@H](C)[C@@H](O)c1ccc(O)c2ccccc12 .
RESULT: -0.254

Turning now to a further compound:
QUERY: Give a short answer stating reported composite z-score for CC(C)c1ccc(NN2C(C(O)c3cccc(O)c3)C=CC3C(=O)N(c4ccccc4)C(=O)C32)cc1 (centres undefined) .
RESULT: 0.234
